# experiment.notes: DHA reduction of prodrugs and nitro compounds, HPLC initial rate (Examples 5 and 6)
# Format: physicochemical
# test.parameters: 100 μM compound, 10 mM DHA, 37° C., pH 10.6
Criterion: Initial Rate, pH 10.6 strictly under 2 nmoles/min/mL. Met: class 1. Not met: class 0.

Prompt line: Please state whether Initial Rate, pH 10.6 is below 2 nmoles/min/mL for `O=[N+]([O-])c1ccc(CO)cc1`
Response line: class 1

Prompt line: Please state whether Initial Rate, pH 10.6 is below 2 nmoles/min/mL for NC(=O)c1cc(N2CC2)c([N+](=O)[O-])cc1[N+](=O)[O-] [Tretazicar, 5-(aziridin-1-yl)-2,4-dinitrobenzamide]
Response line: class 0

Prompt line: Please state whether Initial Rate, pH 10.6 is below 2 nmoles/min/mL for `Cc1ncc([N+](=O)[O-])n1CCO`
Response line: class 1

Prompt line: Please state whether Initial Rate, pH 10.6 is below 2 nmoles/min/mL for `O=C(O)c1cc([N+](=O)[O-])c(Cl)c([N+](=O)[O-])c1`
Response line: class 0

Prompt line: Please state whether Initial Rate, pH 10.6 is below 2 nmoles/min/mL for `Cc1cc(Cl)c([N+](=O)[O-])cc1[N+](=O)[O-]`
Response line: class 1

====

Task for the reader: assign each of the following compounds its reported Initial Rate, pH 9.
# experiment.notes: DHA reduction of prodrugs and nitro compounds, HPLC initial rate (Examples 5 and 6)
# Type: physicochemical
# test.parameters: 100 μM compound, 10 mM DHA, 37° C., pH 9
Number in nmoles/min/mL, nothing else.

Prompt line: Entry Nc1n[n+]([O-])c2ccccc2[n+]1[O-] [Tirapazamine, 3-amino-1,2,4-benzotriazine-1,4-dioxide] has what Initial Rate, pH 9?
Response line: 3.503

Prompt line: Entry NC(=O)N/N=C/c1ccc([N+](=O)[O-])o1 [Nitrofurazone] has what Initial Rate, pH 9?
Response line: 2.390

Prompt line: Entry O=C(O)c1cc([N+](=O)[O-])c(Cl)c([N+](=O)[O-])c1 [4-chloro-3,5-dinitrobenzoic acid] has what Initial Rate, pH 9?
Response line: 1.293

Prompt line: Entry Cc1cc(Cl)c([N+](=O)[O-])cc1[N+](=O)[O-] [5-chloro-2,4-dinitrotoluene] has what Initial Rate, pH 9?
Response line: 0.499

Prompt line: Entry NC(=O)c1cc(N2CC2)c([N+](=O)[O-])cc1[N+](=O)[O-] [Tretazicar, 5-(aziridin-1-yl)-2,4-dinitrobenzamide] has what Initial Rate, pH 9?
Response line: 0.933

Prompt line: Entry COCC(O)Cn1ccnc1[N+](=O)[O-] (stereo not drawn) [Misonidazole] has what Initial Rate, pH 9?
Response line: 1.851

Prompt line: Entry Cc1ncc([N+](=O)[O-])n1CCO [Metronidazole, 2-methyl-5-nitro-1H-imidazole-1-ethanol] has what Initial Rate, pH 9?
Response line: 0.890

====

# experiment.notes: Reduction of tretazicar by α-hydroxycarbonyl compounds, HPLC initial rate (Example 8)
# Format: physicochemical
# test.parameters: 10 mM test compound, 100 μM tretazicar, 0.1 M sodium bicarbonate buffer, pH 10, 37° C.
# Description: The assay was started by addition of 100 μL of 100 mM test compound (compound of formula I) in water to a mixture of tretazicar (100 μM) in 0.1 M sodium bicarbonate buffer, pH 9 or pH 10, to give a final volume of 1 mL. […] The concentration of tretazicar was determined in each sample by reference of the corresponding peak area with an external standard, quantified by absorbance at 325 nm. Initial rates were calculated by curve fitting (FigP, Biosoft, Cambridge, U.K.). […]
Task for the reader: assign each of the following compounds its reported Initial Rate of tretazicar reduction, pH 10.
Number in nmoles/min/mL, nothing else.

Prompt line: Entry CC(=O)C(C)O (centres unmarked) [3-hydroxy-2-butanone] has what Initial Rate of tretazicar reduction, pH 10?
Response line: 0.184

Prompt line: Entry `O=C(CO)[C@H](O)[C@@H](O)CO` has what Initial Rate of tretazicar reduction, pH 10?
Response line: 0.28

Prompt line: Entry O=CC(O)C(O)CO (stereo not drawn) [D(−)-Erthrose] has what Initial Rate of tretazicar reduction, pH 10?
Response line: 0.28

Prompt line: Entry O=C(CO)CO [Dihydroxyacetone (dimer), 1,3-dihydroxy-2-propanone] has what Initial Rate of tretazicar reduction, pH 10?
Response line: 0.69

Prompt line: Entry O=CC(O)CO (racemic) has what Initial Rate of tretazicar reduction, pH 10?
Response line: 0.62

====

Task for the reader: assign each of the following compounds its reported Initial Rate, pH 8.
# experiment.notes: DHA reduction of prodrugs and nitro compounds, HPLC initial rate (Examples 5 and 6)
# Assay type: physicochemical
# test.parameters: 100 μM compound, 10 mM DHA, 37° C., pH 8
Number in nmoles/min/mL, nothing else.

Prompt line: Entry COCC(O)Cn1ccnc1[N+](=O)[O-] (centres unmarked) [Misonidazole] has what Initial Rate, pH 8?
Response line: 1.922

Prompt line: Entry NC(=O)c1cc(N2CC2)c([N+](=O)[O-])cc1[N+](=O)[O-] [Tretazicar, 5-(aziridin-1-yl)-2,4-dinitrobenzamide] has what Initial Rate, pH 8?
Response line: 0.158

Prompt line: Entry Cc1ncc([N+](=O)[O-])n1CCO [Metronidazole, 2-methyl-5-nitro-1H-imidazole-1-ethanol] has what Initial Rate, pH 8?
Response line: 0.369

Prompt line: Entry NC(=O)N/N=C/c1ccc([N+](=O)[O-])o1 [Nitrofurazone] has what Initial Rate, pH 8?
Response line: 0.203

Prompt line: Entry O=C(O)c1cc([N+](=O)[O-])c(Cl)c([N+](=O)[O-])c1 [4-chloro-3,5-dinitrobenzoic acid] has what Initial Rate, pH 8?
Response line: 0.195

Prompt line: Entry Nc1n[n+]([O-])c2ccccc2[n+]1[O-] [Tirapazamine, 3-amino-1,2,4-benzotriazine-1,4-dioxide] has what Initial Rate, pH 8?
Response line: 0.512

Prompt line: Entry Cc1cc(Cl)c([N+](=O)[O-])cc1[N+](=O)[O-] [5-chloro-2,4-dinitrotoluene] has what Initial Rate, pH 8?
Response line: 0.132
